- System: Human primary T cells
- assay-overview: IL-2 ELISA, Human Primary T Cell, Anti-CD3+CD28+ (Example 3)
- Format: cell-based
- condition-context: Homo sapiens, T-cell, 24 h, anti-CD3+CD28 stimulation
Rule: IC50 below 300 nM gives 1. Equal to or above 300 nM gives -1.

Some entries whose results are on file:
COc1ccc(Nc2ncc(F)c(NC3CC(C)(C)N(C)C(C)(C)C3)n2)cc1OC(F)F; 1
CN1C(C)(C)CC(Nc2nc(Nc3ccc(-c4cccnc4)c(C(F)(F)F)c3)ncc2F)CC1(C)C; 1

QUERY: Dear colleague, could you confirm whether IC50 of CN1C(C)(C)CC(Nc2nc(Nc3ccc4c(c3)OC(C)(C)C(=O)N4CCF)ncc2F)CC1(C)C falls below 300 nM? Thanks.
RESULT: 1

QUERY: Dear colleague, could you confirm whether IC50 of CN1C(C)(C)CC(Nc2nc(Nc3ccc4c(c3)OC3(CCCCC3)O4)ncc2F)CC1(C)C falls below 300 nM? Thanks.
RESULT: -1

QUERY: Dear colleague, could you confirm whether IC50 of CN1C(C)(C)CC(Nc2nc(Nc3ccc4c(c3)OCCCO4)ncc2F)CC1(C)C falls below 300 nM? Thanks.
RESULT: -1

QUERY: Dear colleague, could you confirm whether IC50 of CN1C(C)(C)CC(Nc2nc(Nc3ccc(NC(=O)c4ccco4)c(Cl)c3)ncc2F)CC1(C)C falls below 300 nM? Thanks.
RESULT: 1

QUERY: Dear colleague, could you confirm whether IC50 of N#Cc1cccc(Nc2ncc(F)c(NC3CCN(CCO)CC3)n2)c1 falls below 300 nM? Thanks.
RESULT: -1

----------
- System: Human primary T cells
- assay-overview: IL-2 ELISA, Human Primary T Cell, Anti-CD3+CD28+ (Example 3)
- Type: cell-based
- condition-context: Homo sapiens, T-cell, 24 h, anti-CD3+CD28 stimulation
metric: log10(IC50) (log10 of the value in nM)
Heads up: the numbers are on a log10 scale; they represent IC50 in nM.

CCN1C(=O)C(C)(C)Oc2cc(Nc3ncc(F)c(NC4CC(C)(C)N(C)C(C)(C)C4)n3)cnc21; 2.41

For the next question, use this compound.
QUERY: Consider the compound CN1C(=O)C(C)(C)Sc2cc(Nc3ncc(F)c(NC4CC(C)(C)N(C)C(C)(C)C4)n3)ccc21 tested on Human primary T cells; state its log10(IC50).
RESULT: 1.58

----------
- Tested on: Human primary T cells
- assay-overview: IL-2 ELISA, Human Primary T Cell, Anti-CD3+CD28+ (Example 3)
- Format: cell-based
- condition-context: Homo sapiens, T-cell, 24 h, anti-CD3+CD28 stimulation
- Experimental: Human primary T cell isolation and culture: Human primary T cells were prepared as follows. […] The cells at the serum:ficoll interface were recovered and washed twice with 5 volumes of PBS. […] The primary T-cells were then washed twice with PBS to remove the IL-2. Primary T cell stimulation and IL2 ELISA: Human primary T cells (100,000 cells per well) were pre-incubated with or without test compound in Yssel's medium for 1 hr at 37° C. […]
metric: IC50 (nM)
Field: numeric (nM). Do not append units.

CN1C(C)(C)CC(N(Cc2cc3c(cc2Br)OCO3)c2nc(Nc3ccc4c(c3)OCCO4)ncc2F)CC1(C)C; 5580

QUERY: Report IC50, nothing else, for this compound: CN1CCN(c2ccc(Nc3ncc(C(F)(F)F)c(NC4CC(C)(C)N(C)C(C)(C)C4)n3)cc2Cl)CC1
RESULT: 123

QUERY: Report IC50, nothing else, for this compound: CN1CCN(c2ccc(Nc3ncc(C(F)(F)F)c(NC4CC(C)(C)N(C)C(C)(C)C4)n3)cc2C(F)(F)F)CC1
RESULT: 196

QUERY: Report IC50, nothing else, for this compound: COc1cc(Nc2ncc(C)c(NC3CC(C)(C)N(C)C(C)(C)C3)n2)cc(OC)c1
RESULT: 1140

QUERY: Report IC50, nothing else, for this compound: Cc1nc2cc(Nc3ncc(F)c(NC4CC(C)(C)N(C)C(C)(C)C4)n3)ccc2o1
RESULT: 11100

QUERY: Report IC50, nothing else, for this compound: CN1C(C)(C)CC(Nc2nc(Nc3ccc(-c4ccncc4)c(C(F)(F)F)c3)ncc2F)CC1(C)C
RESULT: 177
